Property: IC50; scope: individual compounds
system: C. albicans CaCi-2; test: Primary screen and dose-response retest: CaCi-2 with 8 µg/mL fluconazole (Alamar Blue growth); format: cell-based, Candida albicans; conditions: Candida albicans, CACI2; 37 °C, 48 hours, with test compound and 8 µg/mL (26 µM) fluconazole; average of at least three independent experiments in duplicate; inactive = negligible activity at concentrations below 26 µM
Readout Type: IC50 (µM)

COC(=O)Cn1nc(-c2ccc(C)cc2)c2ccccc21    4.8
COC(=O)Cn1nc(-c2cccc(C)c2)c2ccccc21    1.1
COC(=O)Cn1nc(-c2ccccc2)c2ccc(C)cc21    5.9
COC(=O)Cn1nc(-c2ccc(F)cc2)c2ccccc21    8.3
COC(=O)Cn1nc(-c2cscn2)c2ccccc21    12.9
COC(=O)Cn1nc(-c2cccc(OC)c2)c2ccccc21    0.7
COC(=O)Cn1nc(-c2cccc(F)c2)c2ccccc21    1.7
COC(=O)Cn1nc(-c2ccc(OC)cc2)c2ccccc21    4.2
